# System name: PI3K (p110γ) (Homo sapiens, UniProt P48736)
# Sequence (P48736 whole entry): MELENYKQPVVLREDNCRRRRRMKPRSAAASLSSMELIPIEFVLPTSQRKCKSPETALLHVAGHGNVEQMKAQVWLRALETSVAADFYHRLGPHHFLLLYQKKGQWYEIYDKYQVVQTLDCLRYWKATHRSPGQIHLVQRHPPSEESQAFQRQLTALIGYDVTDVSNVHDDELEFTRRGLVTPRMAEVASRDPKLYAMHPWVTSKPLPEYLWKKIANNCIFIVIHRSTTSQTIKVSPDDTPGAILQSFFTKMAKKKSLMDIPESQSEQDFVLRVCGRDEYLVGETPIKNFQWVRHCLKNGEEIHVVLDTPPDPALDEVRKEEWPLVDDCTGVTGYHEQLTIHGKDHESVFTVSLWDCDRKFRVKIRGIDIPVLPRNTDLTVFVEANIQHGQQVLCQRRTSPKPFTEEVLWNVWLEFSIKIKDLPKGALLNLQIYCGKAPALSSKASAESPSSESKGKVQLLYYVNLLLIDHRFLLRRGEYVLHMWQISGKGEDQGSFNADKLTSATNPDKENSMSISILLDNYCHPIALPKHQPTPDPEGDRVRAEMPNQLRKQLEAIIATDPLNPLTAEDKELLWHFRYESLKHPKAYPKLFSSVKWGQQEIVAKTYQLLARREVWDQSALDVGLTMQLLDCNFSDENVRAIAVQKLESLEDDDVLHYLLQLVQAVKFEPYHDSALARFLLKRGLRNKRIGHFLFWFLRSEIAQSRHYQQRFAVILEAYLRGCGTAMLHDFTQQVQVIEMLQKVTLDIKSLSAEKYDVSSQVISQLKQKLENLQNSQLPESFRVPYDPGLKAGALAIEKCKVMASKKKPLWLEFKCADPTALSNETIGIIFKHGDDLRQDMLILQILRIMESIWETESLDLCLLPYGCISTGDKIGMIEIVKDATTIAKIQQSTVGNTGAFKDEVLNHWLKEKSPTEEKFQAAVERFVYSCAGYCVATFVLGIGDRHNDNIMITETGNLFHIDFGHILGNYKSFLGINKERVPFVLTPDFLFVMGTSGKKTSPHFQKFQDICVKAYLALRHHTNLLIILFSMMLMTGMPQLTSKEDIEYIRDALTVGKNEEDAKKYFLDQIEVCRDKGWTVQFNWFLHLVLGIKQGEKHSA
# Protocol text: PI3Kγ assay (ADP-Glo Kinase Assay)
# Assay type: biochemical
# Run conditions: recombinant enzyme; IC50 (nM) or max inhibition (%) at 0.5 μM
Result type: IC50 (nM)

>  <Compound>
Cc1nc([C@@H](C)c2cc(Cl)c(F)c(C(=O)N[C@]3(C)C[C@H](O)C3)c2OC(C)C)n2ccnc(N)c12

>  <Result type>
IC50

>  <Assay value>
3200

$$$$
>  <Compound>
Cc1nc([C@@H](C)c2cc(Cl)c(F)c(C(=O)NCCN3CCN(C)CC3)c2OC(C)C)n2ccnc(N)c12

>  <Result type>
IC50

>  <Assay value>
9500

$$$$
>  <Compound>
Cc1nc(C(C)c2cc(Cl)c(F)c(C(=O)N3CC(C(=O)O)C3)c2OC(C)C)n2ccnc(N)c12 (stereo not shown)

>  <Result type>
IC50

>  <Assay value>
9800

$$$$
>  <Compound>
Cc1nc([C@@H](C)c2cc(Cl)c(F)c(C(=O)N[C@H]3CCCC[C@H]3O)c2OC(C)C)n2ccnc(N)c12

>  <Result type>
IC50

>  <Assay value>
5800

$$$$
>  <Compound>
Cc1nc([C@@H](C)c2cc(Cl)c(F)c(C(=O)N[C@H]3CCC[C@H]3O)c2OC(C)C)n2ccnc(N)c12

>  <Result type>
IC50

>  <Assay value>
6000

$$$$
>  <Compound>
Cc1nc(C(C)c2cc(Cl)c(F)c(C(=O)N[C@H]3CC[C@@H](O)C3)c2OC(C)C)n2ccnc(N)c12 (single isomer, unassigned) [Compound 14A]

>  <Result type>
IC50

>  <Assay value>
7900

$$$$
>  <Compound>
Cc1nc([C@@H](C)c2cc(Cl)c(F)c(C(=O)N3CCC4(CC3)COC4)c2OC(C)C)n2ccnc(N)c12

>  <Result type>
IC50

>  <Assay value>
14000

$$$$
